- System: S. aureus ATCC 25923 (MSSA reference strain)
- test: MIC determination, broth microdilution, ATCC 25923
- Type: cell-based
- measurement_setup: Staphylococcus aureus; ATCC 25923; read-out: MIC
measurement_label: MIC (µg/mL)
Give bare numbers, in µg/mL.

compound="CCCCCCC1C(C(=O)OCC)=C(O)C(=O)N1C (centres unmarked) [16e]" measurement_label=MIC value_observed=250

Quick one: give me MIC for each item below, same order please.
1. CCOC(=O)C1=C(O)C(=O)N(Cc2ccccc2)C1c1ccc(OC)cc1 (centres unmarked) [26e]
2. CCOC(=O)C1=C(O)C(=O)N(C)C1c1ccc(C)cc1 (centres unmarked) [compound 19e]
3. Cc1onc(-c2ccccc2)c1C(=O)N[C@@H]1C(=O)N2[C@@H]1SC(C)(C)[C@@H]2C(=O)O [Oxacillin, reference compound]

## Result
250
1000
0.24
